// data source = patent US20060229358A1

Target: PDE2 (Cavia porcellus, UniProt A0A286XUV5)
Sequence (A0A286XUV5 22-936): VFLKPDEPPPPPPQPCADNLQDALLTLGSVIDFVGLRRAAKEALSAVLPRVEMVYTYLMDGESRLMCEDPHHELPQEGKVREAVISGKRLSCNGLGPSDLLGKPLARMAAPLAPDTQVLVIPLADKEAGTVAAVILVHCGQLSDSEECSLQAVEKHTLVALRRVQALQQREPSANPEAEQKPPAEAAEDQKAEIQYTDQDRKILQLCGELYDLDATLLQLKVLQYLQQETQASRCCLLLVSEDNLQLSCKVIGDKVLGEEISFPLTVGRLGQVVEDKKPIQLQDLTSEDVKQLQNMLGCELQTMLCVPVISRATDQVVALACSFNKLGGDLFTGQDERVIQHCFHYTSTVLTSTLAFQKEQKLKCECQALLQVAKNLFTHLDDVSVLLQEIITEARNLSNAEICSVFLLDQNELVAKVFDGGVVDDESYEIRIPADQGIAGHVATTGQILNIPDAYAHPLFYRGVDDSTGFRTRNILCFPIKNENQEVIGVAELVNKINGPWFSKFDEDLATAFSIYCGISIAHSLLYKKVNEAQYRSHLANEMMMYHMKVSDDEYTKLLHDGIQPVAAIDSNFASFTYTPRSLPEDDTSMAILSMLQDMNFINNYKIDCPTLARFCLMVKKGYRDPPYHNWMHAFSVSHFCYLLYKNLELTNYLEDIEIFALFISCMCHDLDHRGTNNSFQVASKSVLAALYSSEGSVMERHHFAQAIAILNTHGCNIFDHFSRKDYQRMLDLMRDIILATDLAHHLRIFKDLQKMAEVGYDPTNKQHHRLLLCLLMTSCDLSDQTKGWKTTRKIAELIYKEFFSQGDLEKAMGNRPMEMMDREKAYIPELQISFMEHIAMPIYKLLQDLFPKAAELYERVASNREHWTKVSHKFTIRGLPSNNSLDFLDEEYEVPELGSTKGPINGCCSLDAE
Assay: Inhibition of cyclic nucleotide PDE activity (Assay I), PDE2
Type: biochemical, guinea pig
Settings: mean ± S.E.M. (n); read-out: IC50 on phosphodiesterase isozyme 2
measurementLabel: pIC50
One number for each entry, as −log10 of the molar value.

Study these solved cases before continuing.
1) O=c1cc(-c2ccc(O)cc2)oc2cc(O)cc(O)c12
4.78
2) O=c1c(O)c(-c2cc(O)c(O)c(O)c2)oc2cc(O)cc(O)c12
4.89

State the recorded pIC50 for every item in the following list.
1. O=c1cc(-c2ccc(O)c(O)c2)oc2cc(O[C@@H]3O[C@H](CO)[C@@H](O)[C@H](O)[C@H]3O)cc(O)c12 [Luteolin-7-glucoside]
2. COc1ccc(-c2coc3cc(O)cc(O)c3c2=O)cc1

Solution:
[4.45, 4.55]

---

Could you please report measured IC50 for the items listed next?
Molecular target: PDE5 (Cavia porcellus, UniProt H0VD23)
Test: Inhibition of cyclic nucleotide PDE activity (Assay I), PDE5
Assay type: biochemical, guinea pig
Conditions: mean ± S.E.M. (n); read-out: IC50 on phosphodiesterase isozyme 5

1) O=c1cc(-c2ccc(O)cc2)oc2cc(O)cc(O)c12
> 100 µM

State the recorded IC50 for every item in the following list.
1. O=c1cc(-c2ccc(O)c(O)c2)oc2cc(O)cc(O)c12
2. COc1ccc(-c2coc3cc(O)cc(O)c3c2=O)cc1
3. O=C1CC(c2ccc(O)c(O)c2)Oc2cc(O)cc(O)c21 (centres unmarked)
4. O=c1cc(-c2ccccc2)oc2cc(O)cc(O)c12

Solution:
19.3 µM
> 100 µM
> 100 µM
> 100 µM

---

Could you please report measured pIC50 for the items listed next?
Test system: PDE3
Assay: Inhibition of cyclic nucleotide PDE activity (Assay I), PDE3
Format: biochemical, guinea pig
Settings: mean ± S.E.M. (n); read-out: IC50 on phosphodiesterase isozyme 3
Numbers only, as −log10 of the molar value.

Study these solved cases before continuing.
1. O=c1c(-c2ccc(O)cc2)coc2cc(O)ccc12
4.54
2. O=C1CC(c2ccc(O)c(O)c2)Oc2cc(O)cc(O)c21 (centres unmarked)
4.28

Exercise: Please report the measured pIC50 for O=c1c(O)c(-c2ccc(O)c(O)c2)oc2cc(O)cc(O)c12
Solution: 5.25

---

Target: PDE5 (Cavia porcellus)
Test: Inhibition of cyclic nucleotide PDE activity (Assay I), PDE5
Format: biochemical, guinea pig
measurementLabel: IC50 (µM)
One number for each entry, in µM.

Exercise: Quote PDE5 (Cavia porcellus) IC50 for entry O=c1c(-c2ccc(O)cc2)coc2cc(O)cc(O)c12 [Genistein] .
Solution: 73.9

---

Molecular target: high affinity rolipram binding sites (HARBS, PDE4H)
Construct: IC50 for displacement of [3H]-rolipram from HARBS; other: 300 μM, guinea pig, preliminary experimental data; other: guinea pig whole brain particulates; over 300 μM not available due
Assay: Binding to particulate HARBS of whole brain, displacement of [3H]-rolipram (Assay II)
Set-up: species or system guinea pig
Conditions: 2 nM [3H]-rolipram, guinea pig whole brain particulates, FIG. 2; read-out: IC50 for displacement of [3H]-rolipram from HARBS
measurementLabel: IC50 (µM)
Give bare numbers, in µM.

Study these solved cases before continuing.
1. COc1c(-c2ccc(OC(C)=O)c(OC(C)=O)c2)oc2cc(OC(C)=O)cc(OC(C)=O)c2c1=O [QMPA, Quercetin 3-O-methyl peracetate]
8.7
2. CCCCOc1cc(CC2CNC(=O)N2)ccc1OC (stereo not drawn) [Ro 20-1724, reference compound]
0.0673

API: the following record is the query input.
Exercise: Please report the measured IC50 for COc1ccc(C2CNC(=O)C2)cc1OC1CCCC1 (stereo not drawn)
Solution: 0.0074
